Assignment: determine reported IC50 for the given compounds.
study_target: UniProt:Q9P2K8

Per the records, this compound ( NC(=O)[C@H]1CN(c2ccnc(-c3cnc4ccc(C(F)(F)F)cn34)n2)CCN1C1CC1 ) has IC50 equal to < 10 nM

Per the records, this compound ( O=C(O)C1(O)CCCN(c2ccnc(-c3cnc4ccc(C(F)(F)F)cn34)n2)C1 (centres unmarked) ) has IC50 equal to 100 to 1000 nM

Per the records, this compound ( CC(C)n1cc(C(=O)N2CCN(c3ccnc(-c4cnc5ccc(C(F)(F)F)cn45)n3)CC2c2cn[nH]c2)cn1 (centres unmarked) ) has IC50 equal to 100 to 1000 nM

Per the records, this compound ( Cc1cnc(N2C[C@H](C)C[C@@H](c3cn[nH]c3)C2)nc1-c1cnc2ccc(Cl)cn12 (stereo in doubt) ) has IC50 equal to 10 to 100 nM

Per the records, this compound ( CC(=O)N1C(C)CN(c2ccnc(-c3cnc4ccc(Cl)cn34)n2)CC1c1c[nH]nc1C (centres unmarked) ) has IC50 equal to 100 to 1000 nM

Per the records, this compound ( C[C@@H]1CN(c2nccc(-c3cnc4cc(F)c(Cl)cn34)n2)C[C@H](c2cn[nH]c2)O1 ) has IC50 equal to < 10 nM

Per the records, this compound ( Cc1nn(C)cc1C(=O)N1CCN(c2ccnc(-c3cnc4ccc(C(F)(F)F)cn34)n2)C[C@H]1C ) has IC50 equal to 100 to 1000 nM

Per the records, this compound ( NC(=O)C1CN(c2ccnc(-c3cnc4ccc(C(F)(F)F)cn34)n2)C1 ) has IC50 equal to 100 to 1000 nM

====

study_target: GCN2 kinase (Homo sapiens (Human), UniProt Q9P2K8)
Sequence (Q9P2K8 whole entry): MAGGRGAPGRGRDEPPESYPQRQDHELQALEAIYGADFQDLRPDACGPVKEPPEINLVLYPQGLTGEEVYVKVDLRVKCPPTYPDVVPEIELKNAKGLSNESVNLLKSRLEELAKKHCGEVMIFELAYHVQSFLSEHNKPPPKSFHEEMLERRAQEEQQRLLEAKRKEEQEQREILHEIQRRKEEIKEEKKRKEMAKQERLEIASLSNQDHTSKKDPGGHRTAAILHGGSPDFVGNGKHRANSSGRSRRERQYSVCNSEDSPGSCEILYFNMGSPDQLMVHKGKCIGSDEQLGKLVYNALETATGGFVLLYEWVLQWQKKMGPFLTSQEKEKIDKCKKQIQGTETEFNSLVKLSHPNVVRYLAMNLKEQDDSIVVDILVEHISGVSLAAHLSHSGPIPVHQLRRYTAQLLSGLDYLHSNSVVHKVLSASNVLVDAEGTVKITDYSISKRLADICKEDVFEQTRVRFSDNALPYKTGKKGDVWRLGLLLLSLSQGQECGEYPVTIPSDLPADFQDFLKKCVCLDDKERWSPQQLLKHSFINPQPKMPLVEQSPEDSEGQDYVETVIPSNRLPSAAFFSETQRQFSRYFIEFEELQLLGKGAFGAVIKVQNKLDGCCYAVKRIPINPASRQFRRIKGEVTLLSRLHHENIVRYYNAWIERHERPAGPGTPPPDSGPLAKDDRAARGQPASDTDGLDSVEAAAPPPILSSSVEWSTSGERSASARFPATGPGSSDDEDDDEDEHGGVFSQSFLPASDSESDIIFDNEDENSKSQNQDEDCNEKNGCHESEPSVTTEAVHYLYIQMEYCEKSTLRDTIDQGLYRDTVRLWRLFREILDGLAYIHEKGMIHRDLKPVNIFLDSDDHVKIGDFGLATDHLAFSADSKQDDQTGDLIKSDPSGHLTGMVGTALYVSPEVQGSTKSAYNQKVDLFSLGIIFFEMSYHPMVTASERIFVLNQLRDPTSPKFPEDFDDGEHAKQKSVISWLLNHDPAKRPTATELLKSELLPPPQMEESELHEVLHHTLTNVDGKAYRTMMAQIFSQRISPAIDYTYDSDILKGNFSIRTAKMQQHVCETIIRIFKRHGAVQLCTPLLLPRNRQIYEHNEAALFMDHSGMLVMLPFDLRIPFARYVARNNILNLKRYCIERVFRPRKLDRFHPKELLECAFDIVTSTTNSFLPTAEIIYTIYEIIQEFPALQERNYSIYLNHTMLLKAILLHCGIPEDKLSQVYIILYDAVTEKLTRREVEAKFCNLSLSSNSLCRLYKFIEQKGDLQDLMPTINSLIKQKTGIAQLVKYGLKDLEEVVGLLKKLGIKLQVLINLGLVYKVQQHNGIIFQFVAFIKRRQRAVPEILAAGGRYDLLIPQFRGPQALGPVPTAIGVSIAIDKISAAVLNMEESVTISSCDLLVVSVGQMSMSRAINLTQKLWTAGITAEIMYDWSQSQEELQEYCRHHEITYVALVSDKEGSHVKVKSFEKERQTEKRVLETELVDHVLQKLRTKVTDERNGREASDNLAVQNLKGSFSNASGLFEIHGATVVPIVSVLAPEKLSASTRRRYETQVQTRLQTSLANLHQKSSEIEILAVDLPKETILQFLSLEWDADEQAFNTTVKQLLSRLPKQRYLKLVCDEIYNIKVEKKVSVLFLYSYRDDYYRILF
Assignment: determine reported Ki for the given molecules.

Per the records, this molecule ( CP(C)(=O)C1CC(c2cn[nH]c2)CN(c2ccnc(-c3cnc4ccc(Cl)cn34)n2)C1 (stereo not drawn) ) has Ki equal to < 10 nM

Per the records, this molecule ( Cc1noc([C@H]2CN(c3ccnc(-c4cnc5ccc(C(F)(F)F)cn45)n3)C[C@@H](C)O2)n1 (stereo in doubt) ) has Ki equal to < 10 nM

Per the records, this molecule ( O=C1NCCC2CN(c3ccnc(-c4cnc5ccc(Cl)cn45)n3)CCN12 (stereo not drawn) ) has Ki equal to < 10 nM

Per the records, this molecule ( O=C(Nc1cn[nH]c1)[C@H]1CCCN(c2ccnc(-c3cnc4cc(F)c(Cl)cn34)n2)C1 ) has Ki equal to 10 to 100 nM

Per the records, this molecule ( CC1CN(c2nccc(-c3cnc4ccc(C(F)(F)F)cn34)n2)C(C)C(c2cn[nH]c2)N1 (single isomer, unassigned) ) has Ki equal to 10 to 100 nM

Per the records, this molecule ( CS(=N)(=O)C[C@H]1CCCN(c2ccnc(-c3cnc4ccc(C(F)(F)F)cn34)n2)C1 (stereo partly drawn) ) has Ki equal to 10 to 100 nM

Per the records, this molecule ( O=C1NCC2CN(c3ccnc(-c4cnc5ccc(C(F)(F)F)cn45)n3)CCN12 (stereo not drawn) ) has Ki equal to 10 to 100 nM

Per the records, this molecule ( CS(=O)(=O)NCC1CCCN(c2nsc(-c3cnc4ccc(C(F)(F)F)cn34)n2)C1 (stereo not drawn) ) has Ki equal to < 10 nM

Per the records, this molecule ( FC(F)c1ccc2ncc(-c3ccnc(N4CCOC(c5cn[nH]c5)C4)n3)n2c1 (stereo not drawn) ) has Ki equal to < 10 nM

Per the records, this molecule ( C[C@H]1CN(c2nccc(-c3cnc4ccc(C(F)F)cn34)n2)C[C@@H](CNS(C)(=O)=O)C1(F)F (stereo in doubt) ) has Ki equal to < 10 nM

Per the records, this molecule ( CS(=O)(=O)NC[C@@H]1CN(c2ccnc(-c3cnc4ccc(Cl)cn34)n2)CCO1 ) has Ki equal to 10 to 100 nM

Per the records, this molecule ( FC(F)(F)c1ccc2ncc(-c3nccc(N4CCCC(c5cn[nH]c5)C4)n3)n2c1 (stereo not drawn) ) has Ki equal to < 10 nM

Per the records, this molecule ( Fc1cc2ncc(-c3nccc(N4CCCC(c5c[nH]cn5)C4)n3)n2cc1Cl (stereo not drawn) ) has Ki equal to 10 to 100 nM

Per the records, this molecule ( CS(=O)(=O)NC[C@@H]1CN(c2cncc(-c3cnc4ccc(Cl)cn34)n2)CCO1 ) has Ki equal to < 10 nM

Per the records, this molecule ( FC(F)(F)c1ccc2ncc(-c3nsc(N4CCOC(c5cn[nH]c5)C4)n3)n2c1 (stereo not drawn) ) has Ki equal to 10 to 100 nM

Per the records, this molecule ( Cc1noc([C@H]2CN(c3ccnc(-c4cnc5cc(F)c(Cl)cn45)n3)C[C@@H](C)O2)n1 (relative stereo) ) has Ki equal to 10 to 100 nM

Per the records, this molecule ( Cn1cc(NC(=O)[C@H]2CCCN(c3ccnc(-c4cnc5cc(F)c(Cl)cn45)n3)C2)cn1 ) has Ki equal to 100 to 1000 nM

Per the records, this molecule ( Cc1noc([C@H]2CN(c3ccnc(-c4cnc5ccc(Cl)cn45)n3)C[C@@H](C)O2)n1 [I-54] ) has Ki equal to 10 to 100 nM

Per the records, this molecule ( FC(F)c1ccc2ncc(-c3nsc(N4CCOC(c5cn[nH]c5)C4)n3)n2c1 (stereo not drawn) ) has Ki equal to 10 to 100 nM

Per the records, this molecule ( CC1CC(C(N)=O)C(C)N(c2ccnc(-c3cnc4ccc(Cl)cn34)n2)C1 (stereo not drawn) ) has Ki equal to < 10 nM

Per the records, this molecule ( FC(F)(F)c1ccc2ncc(-c3nccc(N4CCOC(c5cn[nH]c5)C4)n3)n2c1 (stereo not drawn) ) has Ki equal to < 10 nM

Per the records, this molecule ( OCC1(c2ccccc2)CCCN(c2ccnc(-c3cnc4cc(F)c(Cl)cn34)n2)C1 (stereo not drawn) ) has Ki equal to 100 to 1000 nM

Per the records, this molecule ( Clc1ccc2ncc(-c3nccc(N4CCC(c5cn[nH]c5)C4)n3)n2c1 (stereo not drawn) ) has Ki equal to < 10 nM

Per the records, this molecule ( O=C1OCC2CN(c3ccnc(-c4cnc5ccc(Cl)cn45)n3)CCN12 (stereo not drawn) ) has Ki equal to 10 to 100 nM

Per the records, this molecule ( Cc1nnc([C@@H]2CN(c3ccnc(-c4cnc5ccc(C#N)cn45)n3)C[C@H](C)O2)o1 (relative stereo) ) has Ki equal to 100 to 1000 nM

Per the records, this molecule ( CC1CC(C(N)=O)C(C)N(c2ccnc(-c3cnc4cc(F)c(Cl)cn34)n2)C1 (stereo not drawn) ) has Ki equal to < 10 nM

Per the records, this molecule ( Cc1noc([C@@H]2CN(c3ccnc(-c4cnc5ccc(C(F)(F)F)cn45)n3)C[C@H](C)O2)n1 (stereo in doubt) ) has Ki equal to 10 to 100 nM

Per the records, this molecule ( NC(=O)[C@H]1CCCN(c2ccnc(-c3cnc4cc(F)c(Cl)cn34)n2)C1 ) has Ki equal to < 10 nM

Per the records, this molecule ( Cc1noc([C@H]2CN(c3ccnc(-c4cnc5ccc(Cl)cn45)n3)C[C@@H](C)O2)n1 [I-63] ) has Ki equal to < 10 nM

Per the records, this molecule ( Cc1noc([C@@H]2CN(c3ccnc(-c4cnc5ccc(C#N)cn45)n3)C[C@H](C)O2)n1 ) has Ki equal to 10 to 100 nM
